Answer each item with its documented IC50.
Target: human NaV1.8 (Homo sapiens)
Construct: The following NaV1.8 recombinant cell line was used for recordings: HEK-NaV1.8 (NM 006514.1)
Experiment: Electrophysiology: automated whole-cell voltage-clamp (patch clamp, Qube384) recordings of sodium currents in HEK-NaV1.8 cells
Conditions: potency data either taken from inactivated or resting state, read-out: Potency category (human NaV1.8 IC50)

Name the reported IC50 value associated with the compound Cc1c(C(C)(F)F)nn(CC2CC(F)(F)C2)c1C(=O)Nc1ccnc(C(N)=O)c1
≤ 100 nM

Please answer likewise for Cc1c(C(C)(F)F)nn(C[C@]2(C)CCCO2)c1C(=O)Nc1ccnc(S(N)(=O)=O)c1 (single isomer, unassigned) [SC-319a]
100 to 1000 nM

Please answer likewise for Cc1c(C(C)(F)F)nn(CC2CCC(F)(F)C2)c1C(=O)Nc1cccc(S(N)(=O)=O)c1 (single isomer, unassigned) [SC-296a]
≤ 100 nM

Please answer likewise for CS(=O)(=O)c1cncc(NC(=O)c2c(C(F)(F)F)cnn2CC2CCC(F)(F)CC2)c1
1000 to 10000 nM

Please answer likewise for Cc1cc(NC(=O)c2c(C(F)(F)F)c(C)nn2CC2CCC(F)(F)CC2)ccn1
100 to 1000 nM

Please answer likewise for Cc1c(C(F)(F)C(F)(F)F)nn(CC2CCC2(F)F)c1C(=O)Nc1ccnc(C(N)=O)c1 (single isomer, unassigned) [SC-278b]
≤ 100 nM

Please answer likewise for NC(=O)c1cc(NC(=O)c2c(C(F)(F)F)c(C3CC3)nn2CC2CCCCO2)ccn1 (single isomer, unassigned) [SC-258a]
≤ 100 nM

* * *

Answer each item with its documented IC50.
Target: human NaV1.8 (Homo sapiens, UniProt Q9Y5Y9)
Construct: The following NaV1.8 recombinant cell line was used for recordings: HEK-NaV1.8 (NM 006514.1)
Sequence (Q9Y5Y9 whole entry): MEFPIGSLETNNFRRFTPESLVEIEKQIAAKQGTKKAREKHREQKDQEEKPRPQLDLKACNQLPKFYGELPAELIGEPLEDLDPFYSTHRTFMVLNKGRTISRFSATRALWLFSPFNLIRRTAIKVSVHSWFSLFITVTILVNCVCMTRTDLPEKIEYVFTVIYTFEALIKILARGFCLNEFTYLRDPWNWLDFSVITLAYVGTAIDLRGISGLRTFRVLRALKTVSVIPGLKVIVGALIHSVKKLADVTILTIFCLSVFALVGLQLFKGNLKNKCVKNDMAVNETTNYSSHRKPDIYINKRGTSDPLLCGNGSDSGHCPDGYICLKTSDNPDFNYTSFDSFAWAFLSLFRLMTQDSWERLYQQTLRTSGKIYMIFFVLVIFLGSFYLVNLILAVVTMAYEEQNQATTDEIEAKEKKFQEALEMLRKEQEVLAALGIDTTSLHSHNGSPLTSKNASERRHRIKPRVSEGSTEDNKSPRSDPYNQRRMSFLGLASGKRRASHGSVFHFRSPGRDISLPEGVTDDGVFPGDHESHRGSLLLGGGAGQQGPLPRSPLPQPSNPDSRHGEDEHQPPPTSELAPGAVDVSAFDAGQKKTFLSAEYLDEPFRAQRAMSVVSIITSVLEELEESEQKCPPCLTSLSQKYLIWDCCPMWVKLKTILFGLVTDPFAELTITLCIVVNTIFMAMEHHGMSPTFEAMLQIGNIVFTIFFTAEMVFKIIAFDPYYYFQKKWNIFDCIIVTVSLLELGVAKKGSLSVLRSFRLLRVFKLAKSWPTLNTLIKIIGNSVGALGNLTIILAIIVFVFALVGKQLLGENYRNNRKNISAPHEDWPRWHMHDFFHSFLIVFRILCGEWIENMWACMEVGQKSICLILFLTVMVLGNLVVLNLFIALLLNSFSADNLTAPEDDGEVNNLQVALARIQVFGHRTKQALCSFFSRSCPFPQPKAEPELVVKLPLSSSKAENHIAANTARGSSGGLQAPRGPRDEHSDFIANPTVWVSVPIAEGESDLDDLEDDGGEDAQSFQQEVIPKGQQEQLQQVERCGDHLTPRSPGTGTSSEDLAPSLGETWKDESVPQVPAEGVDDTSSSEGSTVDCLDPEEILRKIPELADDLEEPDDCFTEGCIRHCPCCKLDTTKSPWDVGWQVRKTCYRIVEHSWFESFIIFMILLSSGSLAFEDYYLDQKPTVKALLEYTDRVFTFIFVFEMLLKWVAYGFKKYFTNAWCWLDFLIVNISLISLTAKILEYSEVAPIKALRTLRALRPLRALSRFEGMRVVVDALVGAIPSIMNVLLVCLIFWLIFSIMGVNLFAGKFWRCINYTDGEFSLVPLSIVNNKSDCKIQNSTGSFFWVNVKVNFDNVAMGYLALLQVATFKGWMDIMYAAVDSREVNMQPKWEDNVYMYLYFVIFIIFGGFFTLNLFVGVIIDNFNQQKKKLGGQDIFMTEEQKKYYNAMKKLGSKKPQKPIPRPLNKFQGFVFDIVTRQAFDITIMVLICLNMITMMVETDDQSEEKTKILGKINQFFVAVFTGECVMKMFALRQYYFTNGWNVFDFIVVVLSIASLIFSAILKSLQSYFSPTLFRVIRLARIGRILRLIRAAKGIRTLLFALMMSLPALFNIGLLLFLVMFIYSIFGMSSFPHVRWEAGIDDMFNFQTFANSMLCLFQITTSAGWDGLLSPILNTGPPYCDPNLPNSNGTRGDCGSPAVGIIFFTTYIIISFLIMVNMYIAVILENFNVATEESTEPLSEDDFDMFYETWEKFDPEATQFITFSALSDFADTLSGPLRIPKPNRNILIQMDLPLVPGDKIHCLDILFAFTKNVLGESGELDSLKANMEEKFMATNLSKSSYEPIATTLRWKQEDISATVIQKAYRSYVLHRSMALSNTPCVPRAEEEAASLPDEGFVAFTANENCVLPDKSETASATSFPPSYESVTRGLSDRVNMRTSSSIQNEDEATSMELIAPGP
Sequence (Q9NY72 23-215 partner): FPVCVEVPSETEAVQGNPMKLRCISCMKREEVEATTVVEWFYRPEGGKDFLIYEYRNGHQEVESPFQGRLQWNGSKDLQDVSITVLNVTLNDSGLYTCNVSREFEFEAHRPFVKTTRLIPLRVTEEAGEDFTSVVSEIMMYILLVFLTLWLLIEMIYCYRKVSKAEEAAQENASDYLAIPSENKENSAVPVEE
Experiment: Electrophysiology: automated whole-cell voltage-clamp (patch clamp, Qube384) recordings of sodium currents in HEK-NaV1.8 cells
Settings: potency data either taken from inactivated or resting state, read-out: Potency category (human NaV1.8 IC50)

Value wanted: IC50 (human NaV1.8 (Homo sapiens, UniProt Q9Y5Y9)) of entry NC(=O)c1cc(NC(=O)c2c(C(F)F)c(C3CC3)nn2CC2CCC(F)(F)C2)ccn1 (stereo not shown) [SC-216]
≤ 0.1 µM

Please answer likewise for Cc1c(C(C)(F)F)nn(CC2CCC(F)(F)C2)c1C(=O)Nc1ccnc(C(N)=O)c1 (stereo not shown) [SC-167]
≤ 0.1 µM

Please answer likewise for CS(=O)(=O)c1cccc(NC(=O)c2c(C(F)(F)F)cnn2CC2CCCC(F)(F)C2)c1 (stereo not shown) [SC-23]
0.1 to 1 µM

Please answer likewise for CC(C)c1cnn(CC2CCCCC2)c1C(=O)Nc1cccc(S(C)(=O)=O)c1 [SC-18]
1 to 10 µM

Please answer likewise for Cc1c(OC(F)(F)F)nn(CC2CC(F)(F)C2)c1C(=O)Nc1ccnc(C(N)=O)c1 [SC-318]
0.1 to 1 µM

Please answer likewise for Cc1cnn(CC2CCCCC2)c1C(=O)Nc1cccc(S(C)(=O)=O)c1 [SC-37]
1 to 10 µM

Please answer likewise for NC(=O)c1cc(NC(=O)c2c(C(F)(F)F)c(C3CC3)nn2CC2CC(F)(F)C2)ccc1F [SC-274]
≤ 0.1 µM

Please answer likewise for Cc1c(C(C)(F)F)nn(CC2(C(F)F)CC(F)(F)C2)c1C(=O)Nc1ccnc(C(N)=O)c1 [SC-311]
≤ 0.1 µM

Please answer likewise for Cc1nn(CC2CCCCC2)c(C(=O)Nc2ccc(F)c(S(N)(=O)=O)c2)c1C(F)(F)F [SC-238]
≤ 0.1 µM

Please answer likewise for Cc1c(C(C)(F)F)nn(CC2(C)CC2)c1C(=O)Nc1ccnc(S(N)(=O)=O)c1 [SC-313]
≤ 0.1 µM

Please answer likewise for CS(=O)(=O)c1cc(NC(=O)c2c(C(F)(F)F)c(C3CC3)nn2CC2CCC(F)(F)C2)ccn1 (single isomer, unassigned) [SC-277b]
≤ 0.1 µM

Please answer likewise for Cc1nn(CC2COC2)c(C(=O)Nc2cccc(S(C)(=O)=O)c2)c1C(F)(F)F [SC-234]
1 to 10 µM

Please answer likewise for NC(=O)c1cc(NC(=O)c2c(C(F)(F)F)cnn2CC2CCCCC2)ccc1F [SC-35]
≤ 0.1 µM

Please answer likewise for NC(=O)c1cc(NC(=O)c2c(C(F)(F)F)c(C3CC3)nn2CC2CC(F)(F)C2(F)F)ccn1 (single isomer, unassigned) [SC-291b]
≤ 0.1 µM

Please answer likewise for Cc1nn(CC2CCC(F)(F)CC2)c(C(=O)Nc2cnnc(S(C)(=O)=O)c2)c1C(F)(F)F [SC-280]
0.1 to 1 µM

Please answer likewise for NC(=O)c1cc(NC(=O)c2c(C(F)(F)F)c(C3CC3)nn2CC2CCCOC2)ccn1 (single isomer, unassigned) [SC-145b]
≤ 0.1 µM
